Molecular target: Serine/threonine-protein phosphatase PP1-alpha catalytic subunit (Homo sapiens) (UniProt P62136)
Sequence (P62136 whole entry, looked up): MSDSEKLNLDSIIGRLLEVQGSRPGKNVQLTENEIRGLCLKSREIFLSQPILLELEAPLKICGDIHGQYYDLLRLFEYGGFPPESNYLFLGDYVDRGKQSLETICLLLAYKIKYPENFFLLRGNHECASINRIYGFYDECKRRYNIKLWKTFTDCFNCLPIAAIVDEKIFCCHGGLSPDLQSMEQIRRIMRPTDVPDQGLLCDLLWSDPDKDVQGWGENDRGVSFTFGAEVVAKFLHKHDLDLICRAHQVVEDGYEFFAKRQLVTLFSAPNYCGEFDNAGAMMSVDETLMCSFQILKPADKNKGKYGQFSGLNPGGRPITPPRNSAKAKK
Test: single-dose PP1alpha phosphatase inhibition – biochemical, fluorescence, OMFP substrate, powder samples, set 2, confirmation (AID 652218)
Details: purified PP1alpha, OMFP dephosphorylation fluorescence; at 50 µM
The source made the active and inactive calls.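 The calls were made as follows: active = inhibition of the phosphatase PP1 of at least 70% at 50 µM; inactive = the rest.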
Outcome codes: active, inactive

>>> print(df.to_string())
                                    compound  discrete_label
 0  Oc1c(CN2CCN(c3ccccn3)CC2)cc(Cl)c2cccnc12          active
 1  CN1CCN(C(c2ccccn2)c2cc(Cl)c3ccccc3c2O)CC1 (stereo not given)        inactive
 2  CN1CCC(NC(c2ccccn2)c2ccc3cccnc3c2O)CC1 (stereo not given)          active
 3  Oc1c(C(c2ccccn2)N2CCOCC2)cc(Cl)c2cccnc12 (stereo not given)          active
 4  CN1CCN(C(c2ccccn2)c2ccc3cccnc3c2O)CC1 (stereo not given)          active
 5  COc1ccnc(C(c2ccc3cccnc3c2O)N2CCN(C)CC2)c1 (stereo not given)          active
 6  Oc1c(C(c2ccccn2)N2CCCC2)ccc2cccnc12 (stereo not given)          active
 7           CN1CCN(Cc2cc(Cl)c3cccnc3c2O)CC1          active
 8  CC1CCN(C(c2ccccn2)c2cc(Cl)c3cccnc3c2O)CC1 (stereo not given)          active
 9  CN1CCN(C(c2cccnc2)c2cc(Cl)c3cccnc3c2O)CC1 (stereo not given)        inactive
10  CCN1CCN(C(c2ccccn2)c2cc(Cl)c3cccnc3c2O)CC1 (stereo not given)          active
11  CN1CCN(C(c2ccc(C(F)(F)F)cn2)c2ccc3cccnc3c2O)CC1 (stereo not given)          active
12  Cc1ccnc(C(c2ccc3cccnc3c2O)N2CCN(C)CC2)c1 (stereo not given)          active
13  CN1CCN(C(c2ncccn2)c2ccc3cccnc3c2O)CC1 (stereo not given)          active
14  CC(C)(C)OC(=O)N1CCN(C(c2ccccn2)c2cc(Cl)c3cccnc3c2O)CC1 (stereo not given)          active
15  CN1CCN(C(c2ccccn2)c2cc(Cl)ccc2O)CC1 (stereo not given)        inactive
16  Oc1c(CN2CCN(c3ccccc3)CC2)cc(Cl)c2cccnc12          active
17                Oc1c(Cc2ccccn2)ccc2cccnc12          active
18  Oc1c(C(c2ccccn2)N2CCC(Cc3ccccc3)CC2)cc(Cl)c2cccnc12 (stereo not given)          active
19  CN1CCN(C(c2ccccn2)c2cc(Cl)c3cccnc3c2O)CC1 (stereo not given)          active
20  CN1CCN(C(c2cccs2)c2cc(Cl)c3cccnc3c2O)CC1 (stereo not given)          active
21  Oc1c(C(c2ccccn2)N2CCN(c3ccccc3F)CC2)cc(Cl)c2cccnc12 (stereo not given)          active
22  COCOc1c(C(c2ccccn2)N2CCN(C)CC2)ccc2cccnc12 (stereo not given)        inactive
23  Oc1c(C(c2ccccn2)N2CCNCC2)cc(Cl)c2cccnc12 (stereo not given)          active
24  CN1CCN(C(c2ccc3cccnc3c2O)c2ncccc2C(F)(F)F)CC1 (stereo not given)          active

---

Molecular target: Serine/threonine-protein phosphatase PP1-alpha catalytic subunit (Homo sapiens) (UniProt P62136)
Test: single-dose PP1alpha phosphatase inhibition – biochemical, fluorescence, OMFP substrate, powder samples, set 2, confirmation (AID 652218)
Conditions: purified PP1alpha, OMFP dephosphorylation fluorescence; at 50 µM
The source made the active and inactive calls.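 Rule for the calls: active = inhibition of the phosphatase PP1 of at least 70% at 50 µM; inactive = the rest.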
Outcome codes: true (1) (active), false (0) (inactive)

>>> print(df.to_string())
                                    compound  discrete_label
 0  Cc1cccc(C(c2ccc3cccnc3c2O)N2CCN(C)CC2)n1 (stereo unspecified)        true (1)
 1  Cc1ccc2ccc(C(c3ccccn3)N3CCN(C)CC3)c(O)c2n1 (stereo unspecified)        true (1)
 2  CN1CCN(C(c2ccncc2)c2cc(Cl)c3cccnc3c2O)CC1 (stereo unspecified)       false (0)
 3  CN1CCN(C(c2ccccc2)c2cc(Cl)c3cccnc3c2O)CC1 (stereo unspecified)        true (1)
 4  CN1CCN(C(c2nccs2)c2cc(Cl)c3cccnc3c2O)CC1 (stereo unspecified)        true (1)
 5  COc1cccc(C(c2ccc3cccnc3c2O)N2CCN(C)CC2)n1 (stereo unspecified)        true (1)
 6  CCOC(c1ccccn1)c1cc(Cl)c2cccnc2c1O (stereo unspecified)        true (1)
 7  Cc1ccc(C(c2ccc3cccnc3c2O)N2CCN(C)CC2)nc1 (stereo unspecified)        true (1)
 8  Cc1cccnc1C(c1ccc2cccnc2c1O)N1CCN(C)CC1 (stereo unspecified)        true (1)
 9  Oc1c(C(NC2CCCCC2)c2ccccn2)ccc2cccnc12 (stereo unspecified)        true (1)
10  COc1ccc(C(c2ccc3cccnc3c2O)N2CCN(C)CC2)nc1 (stereo unspecified)        true (1)
